Record form. Attribute: pEC50. Fill in for each entry.
TGT: TRPV1 (Rattus norvegicus)
Construct: FLAG; expressed in transfected cells
Sequence (O35433 whole entry): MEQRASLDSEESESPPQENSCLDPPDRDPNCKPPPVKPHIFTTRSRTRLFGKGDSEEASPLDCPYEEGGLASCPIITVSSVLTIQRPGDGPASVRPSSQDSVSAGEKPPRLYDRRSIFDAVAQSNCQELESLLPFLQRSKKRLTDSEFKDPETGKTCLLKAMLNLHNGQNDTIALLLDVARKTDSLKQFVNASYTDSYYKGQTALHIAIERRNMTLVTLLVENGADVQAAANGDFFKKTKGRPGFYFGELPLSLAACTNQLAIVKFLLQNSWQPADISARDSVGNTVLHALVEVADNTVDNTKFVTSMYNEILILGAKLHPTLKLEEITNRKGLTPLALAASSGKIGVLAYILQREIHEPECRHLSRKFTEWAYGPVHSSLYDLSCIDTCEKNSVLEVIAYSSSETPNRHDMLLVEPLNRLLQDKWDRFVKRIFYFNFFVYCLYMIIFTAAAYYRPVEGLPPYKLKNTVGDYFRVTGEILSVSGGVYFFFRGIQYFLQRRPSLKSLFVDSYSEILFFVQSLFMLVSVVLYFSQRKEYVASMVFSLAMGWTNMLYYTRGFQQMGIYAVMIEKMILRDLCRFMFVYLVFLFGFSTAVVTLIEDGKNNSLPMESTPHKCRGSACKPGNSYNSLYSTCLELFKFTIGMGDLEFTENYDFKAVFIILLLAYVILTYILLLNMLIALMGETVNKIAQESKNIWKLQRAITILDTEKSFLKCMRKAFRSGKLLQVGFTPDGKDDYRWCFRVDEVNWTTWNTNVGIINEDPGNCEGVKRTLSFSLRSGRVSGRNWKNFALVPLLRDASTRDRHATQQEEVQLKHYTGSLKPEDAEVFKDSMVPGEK
ASSAY TEXT: Whole-cell patch clamp of TRPV1 currents in HEK293 cells overexpressing TRPV1 (HEK293-V1)
Type: cell-based
APPLIED CONDITIONS: calculated from Imax per dose, HEK-TRPV1 patch clamp; read-out: EC50 at TRPV1
pEC50 (log units): -log10 of the concentration in mol/L.

Reported pEC50, molecule C=C(C)[C@@H]1CCC(C)=C[C@H]1c1c(O)cc(CCC)cc1O : ____
4.25

Any idea what pEC50 was measured for CCCCCc1cc(O)c(C/C=C(\C)CCC=C(C)C)c(O)c1 ?
4.72
